Hello, the source for this data is ChEMBL document CHEMBL5055683, in case you need it.

Consider the following compounds; for each one, report its IC50.
Experiment: Inhibition of Mycobacterium tuberculosis MurX using UDP-MurNAc-dansylpentapeptide as substrate by fluorescence assay
Quick reminder: number only, in nM, skip the unit.

Could you tell me which IC50 is on file for C[C@@H]([C@H](NC(=O)[C@H](CC1CCCCC1)NC(=O)N[C@@H](Cc1c[nH]c2ccccc12)C(=O)OCc1ccccc1)C(=O)NC[C@H]1C[C@@H](O)[C@H](n2ccc(=O)[nH]c2=O)O1)N(C)C(=O)CN ?
614

Could you tell me which IC50 is on file for C[C@@H]([C@H](NC(=O)[C@H](Cc1ccc2ccccc2c1)NC(=O)N[C@@H](Cc1c[nH]c2ccccc12)C(=O)NCC(C)(C)C)C(=O)NC[C@H]1C[C@@H](O)[C@H](n2ccc(=O)[nH]c2=O)O1)N(C)C(=O)CN ?
20

Could you tell me which IC50 is on file for CCCCCCOC(=O)[C@H](Cc1c[nH]c2ccccc12)NC(=O)N[C@@H](Cc1ccc2ccccc2c1)C(=O)N[C@H](C(=O)NC[C@H]1C[C@@H](O)[C@H](n2ccc(=O)[nH]c2=O)O1)[C@H](C)N(C)C(=O)CN ?
2670

Could you tell me which IC50 is on file for CCCCCCNC(=O)[C@H](Cc1c[nH]c2ccccc12)NC(=O)N[C@@H](Cc1ccc2ccccc2c1)C(=O)N[C@H](C(=O)NC[C@H]1C[C@@H](O)[C@H](n2ccc(=O)[nH]c2=O)O1)[C@H](C)N(C)C(=O)CN ?
49

Could you tell me which IC50 is on file for CCCCCCNC(=O)[C@H](Cc1c[nH]c2ccccc12)NC(=O)N[C@@H](CC1CCCCC1)C(=O)N[C@H](C(=O)NC[C@H]1C[C@@H](O)[C@H](n2ccc(=O)[nH]c2=O)O1)[C@H](C)N(C)C(=O)CN ?
75
